systemTested: T7 RNA Polymerase (Escherichia phage T7)
Sequence (P00573 whole entry): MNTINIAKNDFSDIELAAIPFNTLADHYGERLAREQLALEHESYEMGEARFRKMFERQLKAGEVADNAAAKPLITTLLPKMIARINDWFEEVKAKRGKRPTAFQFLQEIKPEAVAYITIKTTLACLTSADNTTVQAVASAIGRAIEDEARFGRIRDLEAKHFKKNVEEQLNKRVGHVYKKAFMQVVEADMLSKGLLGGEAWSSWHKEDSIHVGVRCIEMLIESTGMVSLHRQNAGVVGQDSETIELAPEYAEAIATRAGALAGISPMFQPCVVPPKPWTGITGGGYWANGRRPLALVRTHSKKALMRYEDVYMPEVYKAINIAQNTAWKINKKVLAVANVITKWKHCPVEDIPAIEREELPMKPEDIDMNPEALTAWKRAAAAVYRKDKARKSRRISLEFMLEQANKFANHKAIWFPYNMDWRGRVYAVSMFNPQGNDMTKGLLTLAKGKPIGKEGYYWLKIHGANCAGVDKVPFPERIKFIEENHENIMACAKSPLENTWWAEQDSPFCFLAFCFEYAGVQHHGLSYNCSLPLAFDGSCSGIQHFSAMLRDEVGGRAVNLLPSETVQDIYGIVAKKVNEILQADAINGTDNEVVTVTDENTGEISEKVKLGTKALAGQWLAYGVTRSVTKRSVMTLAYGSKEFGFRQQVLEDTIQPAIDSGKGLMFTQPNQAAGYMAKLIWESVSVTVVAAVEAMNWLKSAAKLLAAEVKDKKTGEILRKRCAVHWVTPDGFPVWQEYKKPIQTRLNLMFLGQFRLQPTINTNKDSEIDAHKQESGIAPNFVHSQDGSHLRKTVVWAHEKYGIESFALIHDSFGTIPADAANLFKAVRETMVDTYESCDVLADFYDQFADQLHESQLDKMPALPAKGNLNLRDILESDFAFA
Assay type: biochemical
measurementConditions: 20 μL transcription system, Cap1 Analog 4 mM, 37° C. 2 to 3 hours
Form field: Final product mass obtained from the 20 μL of mRNA transcription system (one value per entry).
measurementType: Final product mass obtained from the 20 μL of mRNA transcription system (µg)

[
  {
    "compound": "CO[C@@H]1[C@H](OP(=O)([O-])OC[C@H]2O[C@@H](n3cnc4c(=O)[nH]c(N)nc43)[C@H](O)[C@@H]2O)[C@@H](COP(=O)(O)OP(=O)(O)OP(=O)(O)OC[C@H]2O[C@@H](n3c[n+](C)c4c(=O)[nH]c(N)nc43)[C@H](O)[C@@H]2CCN2CCOCC2)O[C@H]1n1cnc2c(N)ncnc21 [Compound 633]",
    "recordedMeasurement": 100
  },
  {
    "compound": "COC[C@H]1[C@@H](O)[C@H](n2c[n+](C)c3c(=O)[nH]c(N)nc32)O[C@@H]1COP(=O)(O)OP(=O)(O)OP(=O)(O)OC[C@H]1O[C@@H](n2cnc3c(N)ncnc32)[C@H](OC)[C@@H]1OCOC[C@H]1O[C@@H](n2cnc3c(=O)[nH]c(N)nc32)[C@H](O)[C@@H]1O [Compound 199]",
    "recordedMeasurement": 95
  }
]
